Biological target: UniProtKB O60885
test readout: IC50

Cc1noc(C)c1-c1cc(C(N)=O)c2c(c1)c1ccc(C(=O)N3CC(F)(F)C3)cc1n2S(=O)(=O)C1CC1 on UniProtKB O60885 gives IC50 = < 50 nM

CC(=O)n1c2cc(C(=O)N3C[C@@H](C)O[C@@H](C)C3)ccc2c2cc(-c3c(C)noc3C)cc(C(N)=O)c21 on UniProtKB O60885 gives IC50 = < 5000 nM

====

Target: BRD4 (Homo sapiens)
test readout: IC50

Below, 3 compounds whose answers are already recorded.
- chemical string: "Cc1noc(C)c1-c1cc(C(N)=O)c2c(c1)c1cc(S(C)(=O)=O)ccc1n2CC1CC1"
  IC50: "< 50 nM"
- chemical string: "CCNC(=O)Nc1ccc2c3cc(-c4c(C)noc4C)cc(C(N)=O)c3n(CC3CC3)c2c1"
  IC50: "< 500 nM"
- chemical string: "COc1ccc2c3cc(-c4c(C)noc4C)cc(C(N)=O)c3n(CC3CC3)c2c1"
  IC50: "< 50 nM"

Could you now consider this next compound?
Entry Cc1nnn(C)c1-c1cc(C(N)=O)c2c(c1)c1ccc(C(=O)N3C[C@@H](C)O[C@@H](C)C3)cc1n2CC1CC1 , IC50 reported as < 500 nM
